Would you kindly list growth for each of these compounds?
- Test system: HOP-92 NSCLC
- experiment-summary: NCI-60 one-dose screen, 48 h (100 = growth as untreated, 0 = no growth, -100 = all killed)
- applied-conditions: 10 µM unless noted
This is part of a sample that, as a whole, favours compounds with a hit. Of some 83,000 tested, about 20% had one in any assay.
Give bare numbers, in %.

Query block: Report measured growth; entry is N#Cc1c(N)nc2c(nnn2-c2cccc(Br)c2)c1N
Result block: 82.2

Query block: Report measured growth; entry is Cc1c(C(=O)O)nnn1-c1nccs1
Result block: 82.4

I'm hoping you can list growth for every compound here, please.
1. O=C(/C=C/C12c3ccccc3C(c3ccccc31)C1C(=O)N(c3ccccc3)C(=O)C12)c1ccccc1 (centres undefined)
2. CCOC(=O)c1ccc(NC(=O)CCCN(CC)CC)cc1
3. COc1ccc(-c2c(N)n[nH]c2-c2ccccc2O)cc1OC
4. Cc1ccc2c(n1)C(=O)C(Oc1ccc(F)cc1)=CC2=O
5. COc1ccc(NC(=O)c2cccc(-c3cc(=O)c4c(O)c(OC)c(OC)cc4o3)c2)cc1
6. O=C(NCCN1CCC(O)CC1)c1cc2c(o1)C(=O)c1ccccc1C2=O

Result block:
[-6.42, 78, 74, 123, 23.6, -67.4]

I'm hoping you can list growth for every compound here, please.
1. O=C(/C=C/c1ccccc1)c1ccc2ccccc2c1
2. Cc1ccc(NSc2ccccc2[N+](=O)[O-])cc1
3. N=c1ccn2c(n1)OC1C(O)C(CO)OC12 (centres undefined)
4. CCC(C)NCc1ccccc1 (centres undefined)

Result block:
94.6
37.7
49.2
93.8

---

- Test system: KM12 colon
- experiment-summary: NCI-60 one-dose screen, 48 h (100 = growth as untreated, 0 = no growth, -100 = all killed)
- applied-conditions: 10 µM unless noted
About 83,000 compounds went through this panel and 20% of them were active in at least one assay; those are over-represented in the sample as a whole. Activity calls are given as the source filed them. The calls were made as follows: active = growth percent below 10; inactive = the rest.
Would you kindly list growth for each of these compounds?

Query block: Would you please give the reported growth of O=C(NC1CCOCC1)c1ccc2c(c1)CN(c1ncc(Cc3cccc(-n4cccn4)c3)s1)CC2 with KM12 colon?
Result block: 84.9% (inactive)

Query block: Would you please give the reported growth of NC(=O)c1c(NC(=O)c2ccccn2)sc2c1CCC(=O)C2 with KM12 colon?
Result block: 6.82% (active)

Query block: Would you please give the reported growth of Nc1c(C(=O)Nc2ccccc2)sc2nc3c(cc12)CCCCCC3 with KM12 colon?
Result block: 15.8% (inactive)

Query block: Would you please give the reported growth of CCNCCNc1cc(-c2ccc(C#N)cc2)c(C#N)c2nc3ccccc3n12 with KM12 colon?
Result block: 29% (inactive)

I'm hoping you can list growth for every compound here, please.
1. COc1cc(-c2ncn(/C=C\c3nnco3)n2)cc(C(F)(F)F)c1
2. O=C1CSC(c2ccccc2O)N1c1nnc(Cn2cnnc2)o1 (stereo unspecified)
3. Cc1ccc(-n2nnc(C3=NCCc4c3[nH]c3ccc(Cl)cc43)c2C)cc1
4. C[C@@H]1CC[C@@H]2[C@@H]1[C@H](OC(=O)/C=C/c1ccccc1)[C@]1(C3CCCCC3)C[C@@H](NC(=O)CO)[C@@]2(C)O1
5. c1ccc2c(c1)nc(-n1ccnc1)c1nc3ccccc3n12
6. COc1cc(NC(=O)c2cccc(-c3cc(=O)c4c(O)c(OC)c(OC)cc4o3)c2)cc(OC)c1OC
7. CCOC(=O)C(=CNc1ccccc1[N+](=O)[O-])C(=O)OCC

Result block:
1: 10.7% (inactive); 2: 84.3% (inactive); 3: 57.3% (inactive); 4: 103% (inactive); 5: 64.9% (inactive); 6: 53.9% (inactive); 7: 106% (inactive)

I'm hoping you can list growth for every compound here, please.
1. Cn1cc(-c2ccc3nc(-c4ccc(CC(=O)Nc5cc(C(C)(C)C)no5)cc4)cnc3c2)cn1
2. COc1cc2c(=O)n(CCCn3ccnc3)c3c4cc5c(cc4ccc3c2cc1OC)OCO5
3. CCN(CC)CCNc1ccc(C)c2sc3cc(C)ccc3c(=O)c12
4. C=C(C=O)[C@@H]1CC=C(C=O)CC1
5. CCCCCCCCN(CCCCCCCC)C(=N)c1ccnc2ccccc12

Result block:
6.95% [30 µM] (active)
8.03% (active)
60.1% (inactive)
-36.6% (active)
-82.7% (active)

Value source: PubChem BioAssay (NCI)
